Reference for the values: paper PMC12030706

experiment: Ex vivo biodistribution in PC-3 tumor-bearing mice; conditions: mouse, muscle, 100 ug, Uptake in muscle, 1 h blocked (co-injected with 100 µg [D-Phe6,Leu-NHEt13,des-Met14]Bombesin(6-14))
Numbered stars: 1 amine (or outer) side, 2 acyl side, 3 side chain; on linkers, the order of the positions; unused ones are H or OH. Square brackets hold non-standard residues; d marks the D form. Peptide text beside a SMILES is read from it. * marks the point of attachment. DOTA = O=C(O)CN1CCN(CC(=O)O)CCN(CC(=O)*)CCN(CC(=O)O)CC1; NMeH = CN[C@@H](Cc1c[nH]cn1)C(=O)O; X1 = O=C(CN1CCC(N[*:1])CC1)[*:2]; Tle = CC(C)(C)[C@H](N)C(=O)O; Thz = O=C(O)[C@@H]1CSCN1
Provide the recorded tissue uptake at 1 h for the entries that follow.
One number for each entry, in %ID/g.

CC(C)C[C@@H](CN1CSC[C@H]1C(N)=O)NC(=O)[C@H](Cc1cnc[nH]1)NC(=O)CN(C)C(=O)[C@@H](NC(=O)[C@H](C)NC(=O)[C@H](Cc1c[nH]c2ccccc12)NC(=O)[C@H](CCC(N)=O)NC(=O)[C@@H](Cc1ccccc1)NC(=O)CN1CCC(NC(=O)CN2CCN(CC(=O)O)CCN(CC(=O)O)CCN(CC(=O)O)CC2)CC1)C(C)C [[^177Lu]Lu-TacsBOMB5, metal not drawn]: 0.13

Then there is this molecule:
// sample CC(C)C[C@H](NC(=O)[C@H](Cc1cnc[nH]1)N(C)C(=O)CNC(=O)[C@@H](NC(=O)[C@H](C)NC(=O)[C@H](Cc1c[nH]c2ccccc12)NC(=O)[C@H](Cc1c[nH]cn1)NC(=O)[C@@H](Cc1ccccc1)NC(=O)CN1CCC(NC(=O)CN2CCN(CC(=O)O)CCN(CC(=O)O)CCN(CC(=O)O)CC2)CC1)C(C)(C)C)C(=O)N1CSC[C@H]1C(N)=O [[^177Lu]Lu-LW01142, metal not drawn] ({DOTA}-[X1][dF]HWA[Tle]G[NMeH]L[Thz]-NH2) , its tissue uptake at 1 h was 0.23

###

Assay: Ex vivo biodistribution in PC-3 tumor-bearing mice
Conditions: mouse, lungs, Uptake in lungs, 1 h post-injection
Procedure: SPECT/CT imaging experiments were performed using an MILabs (Houten, The Netherlands) U-SPECT-II/CT scanner with a custom-made ultra-high-sensitivity big mouse collimator (2 mm pinhole size) following previously reported procedures. […] For ex vivo biodistribution studies, the mice were injected with ~2–6 MBq of the radioligand. […] Organs/tissues of interested were collected, weighed, and measured using an automatic gamma counter.
Numbered stars: 1 amine (or outer) side, 2 acyl side, 3 side chain; on linkers, the order of the positions; unused ones are H or OH. Square brackets hold non-standard residues; d marks the D form. Peptide text beside a SMILES is read from it. * marks the point of attachment. DOTA = O=C(O)CN1CCN(CC(=O)O)CCN(CC(=O)*)CCN(CC(=O)O)CC1; NMeH = CN[C@@H](Cc1c[nH]cn1)C(=O)O; X1 = O=C(CN1CCC(N[*:1])CC1)[*:2]; Tle = CC(C)(C)[C@H](N)C(=O)O; Thz = O=C(O)[C@@H]1CSCN1
readout_label: tissue uptake at 1 h (%ID/g)
One number for each entry, in %ID/g.

CC(C)C[C@@H](CN1CSC[C@H]1C(N)=O)NC(=O)[C@H](Cc1cnc[nH]1)NC(=O)CN(C)C(=O)[C@@H](NC(=O)[C@H](C)NC(=O)[C@H](Cc1c[nH]c2ccccc12)NC(=O)[C@H](CCC(N)=O)NC(=O)[C@@H](Cc1ccccc1)NC(=O)CN1CCC(NC(=O)CN2CCN(CC(=O)O)CCN(CC(=O)O)CCN(CC(=O)O)CC2)CC1)C(C)C [[^177Lu]Lu-TacsBOMB5, metal not drawn]: 2.2

// sample CC(C)C[C@H](NC(=O)[C@H](Cc1cnc[nH]1)N(C)C(=O)CNC(=O)[C@@H](NC(=O)[C@H](C)NC(=O)[C@H](Cc1c[nH]c2ccccc12)NC(=O)[C@H](Cc1c[nH]cn1)NC(=O)[C@@H](Cc1ccccc1)NC(=O)CN1CCC(NC(=O)CN2CCN(CC(=O)O)CCN(CC(=O)O)CCN(CC(=O)O)CC2)CC1)C(C)(C)C)C(=O)N1CSC[C@H]1C(N)=O [[^177Lu]Lu-LW01142, metal not drawn] ({DOTA}-[X1][dF]HWA[Tle]G[NMeH]L[Thz]-NH2) , its tissue uptake at 1 h was 1.53
